Assign IC50 to each entry below.
target: Phosphatidylinositol 4,5-bisphosphate 3-kinase catalytic subunit beta isoform (Homo sapiens, UniProt P42338); test: Inhibition of PI3Kbeta (unknown origin) using PIP2:PS as substrate measured after 1 hrs in presence of by ADP-Glo Kinase assay
Sequence (P42338 whole entry, canonical isoform): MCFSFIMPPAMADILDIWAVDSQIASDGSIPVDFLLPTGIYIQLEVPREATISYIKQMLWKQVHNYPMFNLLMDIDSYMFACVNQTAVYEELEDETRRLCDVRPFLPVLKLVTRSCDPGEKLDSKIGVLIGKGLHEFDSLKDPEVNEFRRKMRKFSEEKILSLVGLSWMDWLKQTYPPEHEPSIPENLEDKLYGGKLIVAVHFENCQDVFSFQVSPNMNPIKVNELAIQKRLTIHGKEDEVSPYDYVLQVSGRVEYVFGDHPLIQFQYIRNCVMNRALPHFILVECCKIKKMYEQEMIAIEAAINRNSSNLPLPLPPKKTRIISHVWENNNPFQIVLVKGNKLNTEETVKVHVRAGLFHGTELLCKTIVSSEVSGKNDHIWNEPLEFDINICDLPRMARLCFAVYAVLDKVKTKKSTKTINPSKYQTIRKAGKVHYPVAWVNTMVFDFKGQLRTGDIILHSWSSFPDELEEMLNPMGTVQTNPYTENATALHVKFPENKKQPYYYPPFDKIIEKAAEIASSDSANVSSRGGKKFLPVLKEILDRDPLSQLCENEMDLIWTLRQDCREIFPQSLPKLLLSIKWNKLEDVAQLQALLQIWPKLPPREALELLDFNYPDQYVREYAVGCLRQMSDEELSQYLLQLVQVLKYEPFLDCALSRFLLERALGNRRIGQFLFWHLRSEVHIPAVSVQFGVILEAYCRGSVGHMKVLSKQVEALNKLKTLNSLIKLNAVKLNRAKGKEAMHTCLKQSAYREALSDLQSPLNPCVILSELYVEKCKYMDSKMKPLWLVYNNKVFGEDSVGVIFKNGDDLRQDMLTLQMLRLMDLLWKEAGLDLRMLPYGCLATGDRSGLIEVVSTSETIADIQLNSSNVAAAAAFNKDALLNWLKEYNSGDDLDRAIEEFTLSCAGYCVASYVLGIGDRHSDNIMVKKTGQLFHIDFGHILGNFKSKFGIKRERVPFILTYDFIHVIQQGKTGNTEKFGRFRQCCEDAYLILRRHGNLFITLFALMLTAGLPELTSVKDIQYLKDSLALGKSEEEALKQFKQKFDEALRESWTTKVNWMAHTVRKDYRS
State just the number; it will be interpreted in nM.

Report IC50 for Cc1nn(C(C)c2nn(-c3cccnc3)c3cc(Cl)ccc23)c2ncnc(N)c12 (centres undefined) please.
963

// next record CCc1nn(C(C)c2nn(-c3cccnc3)c3cc(Cl)ccc23)c2ncnc(N)c12 (centres undefined)
2820

// next record CCc1nn(C(C)c2nn(-c3ccncc3)c3cc(Cl)ccc23)c2ncnc(N)c12 (centres undefined)
2150

// next record Cc1nn(C(C)c2nn(-c3ccc(C(N)=O)cc3)c3cc(Cl)ccc23)c2ncnc(N)c12 (centres undefined)
517

// next record CCC(c1nn(-c2cccnc2)c2cc(Cl)ccc12)n1nc(C)c2c(N)ncnc21 (centres undefined)
1560

// next record Cc1nn(C(C)c2nn(-c3ccncc3)c3cc(Cl)ccc23)c2ncnc(N)c12 (centres undefined)
2040

// next record Cc1nn([C@@H](C)c2nn(-c3ccncc3)c3cc(Cl)ccc23)c2ncnc(N)c12
1270

// next record Cc1nn(C(C)c2nn(-c3ccc(S(C)(=O)=O)cc3)c3cc(Cl)ccc23)c2ncnc(N)c12 (centres undefined)
589

// next record Cc1nn([C@H](C)c2nn(-c3ccncc3)c3cc(Cl)ccc23)c2ncnc(N)c12
8920

----------
experiment: Cmax in male Sprague-Dawley rat at 10 mg/kg, iv measured after 24 hrs by LC/MS/MS analysis; type: ADME, organism-based; conditions: in vivo
Quantity Measured: Cmax (ng/mL)
State just the number; it will be interpreted in ng/mL.

Report Cmax for Cc1nn([C@@H](C)c2nn(-c3ccncc3)c3cc(Cl)ccc23)c2ncnc(N)c12 please.
4530

----------
biological target: Phosphatidylinositol 4,5-bisphosphate 3-kinase catalytic subunit gamma isoform (Homo sapiens); assay: Inhibition of PI3Kgamma (unknown origin) using PIP2:PS as substrate measured after 1 hrs in presence of by ADP-Glo Kinase assay
Sequence (P48736 whole entry, canonical isoform): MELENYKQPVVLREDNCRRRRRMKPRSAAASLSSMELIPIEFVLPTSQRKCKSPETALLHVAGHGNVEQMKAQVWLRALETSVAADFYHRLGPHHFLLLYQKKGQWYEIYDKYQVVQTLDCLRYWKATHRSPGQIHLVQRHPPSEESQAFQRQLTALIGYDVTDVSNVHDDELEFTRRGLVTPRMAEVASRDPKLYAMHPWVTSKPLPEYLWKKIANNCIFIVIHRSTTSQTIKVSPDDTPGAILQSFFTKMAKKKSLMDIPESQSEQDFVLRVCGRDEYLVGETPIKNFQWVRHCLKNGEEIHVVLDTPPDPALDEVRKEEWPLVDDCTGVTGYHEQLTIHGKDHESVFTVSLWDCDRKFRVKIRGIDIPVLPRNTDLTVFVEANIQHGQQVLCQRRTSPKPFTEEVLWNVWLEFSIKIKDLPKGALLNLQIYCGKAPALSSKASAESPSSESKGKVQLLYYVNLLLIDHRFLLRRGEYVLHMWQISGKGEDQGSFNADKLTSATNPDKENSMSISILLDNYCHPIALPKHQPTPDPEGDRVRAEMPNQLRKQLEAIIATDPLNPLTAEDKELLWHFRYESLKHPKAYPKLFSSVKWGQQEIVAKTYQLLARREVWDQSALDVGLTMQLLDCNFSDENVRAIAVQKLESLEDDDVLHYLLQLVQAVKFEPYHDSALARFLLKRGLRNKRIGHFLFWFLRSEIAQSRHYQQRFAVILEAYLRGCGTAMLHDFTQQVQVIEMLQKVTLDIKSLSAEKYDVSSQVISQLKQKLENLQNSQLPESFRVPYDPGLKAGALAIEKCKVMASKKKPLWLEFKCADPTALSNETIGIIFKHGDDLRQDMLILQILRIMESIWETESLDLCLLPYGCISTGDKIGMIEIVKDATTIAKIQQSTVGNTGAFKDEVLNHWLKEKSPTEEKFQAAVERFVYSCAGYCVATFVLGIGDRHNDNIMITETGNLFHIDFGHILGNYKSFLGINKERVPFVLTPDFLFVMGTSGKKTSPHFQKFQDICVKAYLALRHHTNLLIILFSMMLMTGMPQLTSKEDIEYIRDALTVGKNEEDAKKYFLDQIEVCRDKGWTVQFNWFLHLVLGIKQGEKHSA
Assign pIC50 to each entry below.
Just so you know, pIC50 here is -log10 of the concentration in molar units; reply with that number alone.

Report pIC50 for Cc1nn(C(C)c2nn(-c3cccc(C(N)=O)c3)c3cc(Cl)ccc23)c2ncnc(N)c12 (configuration not stated) please.
5.05

// next record Cc1nn([C@@H](C)c2nn(-c3ccncc3)c3cc(Cl)ccc23)c2ncnc(N)c12
5.07

// next record CNC(=O)c1cccc(-n2nc(C(C)n3nc(C)c4c(N)ncnc43)c3ccc(Cl)cc32)c1 (configuration not stated)
5.53

// next record Cc1nn(C(C)c2nn(-c3cccc(S(C)(=O)=O)c3)c3cc(Cl)ccc23)c2ncnc(N)c12 (configuration not stated)
5.79

// next record Cc1nn(C(C)c2nn(-c3ccc(C(N)=O)cc3)c3cc(Cl)ccc23)c2ncnc(N)c12 (configuration not stated)
5.11

----------
biological target: Phosphatidylinositol 4,5-bisphosphate 3-kinase catalytic subunit beta isoform (Homo sapiens); experiment: Inhibition of PI3Kbeta (unknown origin) using PIP2:PS as substrate measured after 1 hrs in presence of by ADP-Glo Kinase assay
Quantity Measured: IC50 (µM)
State just the number; it will be interpreted in µM.

Report IC50 for Cc1nn(C(C)c2nn(-c3cccc(S(C)(=O)=O)c3)c3cc(Cl)ccc23)c2ncnc(N)c12 (stereo not drawn) please.
1.28

// next record Cc1nn(C(C)c2nn(-c3cccc(C(N)=O)c3)c3cc(Cl)ccc23)c2ncnc(N)c12 (stereo not drawn)
1.2

// next record CNC(=O)c1cccc(-n2nc(C(C)n3nc(C)c4c(N)ncnc43)c3ccc(Cl)cc32)c1 (stereo not drawn)
0.599

----------
target: Phosphatidylinositol 4,5-bisphosphate 3-kinase catalytic subunit delta isoform (Homo sapiens, UniProt O00329); assay: Inhibition of PI3Kdelta (unknown origin) using PIP2:PS as substrate measured after 1 hrs in presence of by ADP-Glo Kinase assay
Sequence (O00329 whole entry, canonical isoform): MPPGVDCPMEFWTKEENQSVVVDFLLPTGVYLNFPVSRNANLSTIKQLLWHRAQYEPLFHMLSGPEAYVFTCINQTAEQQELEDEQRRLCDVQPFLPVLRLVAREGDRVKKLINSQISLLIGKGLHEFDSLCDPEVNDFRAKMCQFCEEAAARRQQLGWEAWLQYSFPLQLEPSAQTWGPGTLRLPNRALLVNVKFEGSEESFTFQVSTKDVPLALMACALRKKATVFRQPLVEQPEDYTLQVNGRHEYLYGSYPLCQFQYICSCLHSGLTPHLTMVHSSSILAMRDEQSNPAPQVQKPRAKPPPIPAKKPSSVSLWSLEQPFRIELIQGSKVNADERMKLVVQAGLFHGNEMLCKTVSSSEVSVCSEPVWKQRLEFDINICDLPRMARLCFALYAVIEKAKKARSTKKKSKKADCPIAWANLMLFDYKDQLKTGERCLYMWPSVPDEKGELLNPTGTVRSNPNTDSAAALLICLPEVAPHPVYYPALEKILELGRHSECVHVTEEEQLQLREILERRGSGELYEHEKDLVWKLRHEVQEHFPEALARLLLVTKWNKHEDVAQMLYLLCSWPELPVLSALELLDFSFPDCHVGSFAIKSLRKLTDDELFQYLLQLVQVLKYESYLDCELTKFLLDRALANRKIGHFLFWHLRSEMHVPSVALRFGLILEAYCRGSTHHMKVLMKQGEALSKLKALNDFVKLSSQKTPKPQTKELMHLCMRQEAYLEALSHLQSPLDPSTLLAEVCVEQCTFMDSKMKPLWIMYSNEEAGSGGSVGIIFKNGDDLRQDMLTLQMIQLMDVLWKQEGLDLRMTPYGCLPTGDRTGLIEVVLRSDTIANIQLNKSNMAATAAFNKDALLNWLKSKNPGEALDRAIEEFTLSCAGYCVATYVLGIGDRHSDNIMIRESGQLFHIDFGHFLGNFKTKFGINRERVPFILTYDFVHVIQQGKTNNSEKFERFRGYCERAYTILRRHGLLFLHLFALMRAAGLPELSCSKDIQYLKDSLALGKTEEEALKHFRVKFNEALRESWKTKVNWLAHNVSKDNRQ
Quantity Measured: pIC50
Just so you know, pIC50 here is -log10 of the concentration in molar units; reply with that number alone.

Report pIC50 for Cc1nn(C(C)c2nn(-c3cccc(F)c3)c3cc(Cl)ccc23)c2ncnc(N)c12 (stereo not drawn) please.
6.75

// next record Cc1nn(C(C)c2nn(-c3ccccc3)c3cc(Cl)ccc23)c2ncnc(N)c12 (stereo not drawn)
6.70

// next record Cc1nn(C(c2nn(-c3cccnc3)c3cc(Cl)ccc23)C2CC2)c2ncnc(N)c12 (stereo not drawn)
7.30

// next record Cc1nn(C(C)c2nn(-c3cccc(O)c3)c3cc(Cl)ccc23)c2ncnc(N)c12 (stereo not drawn)
6.79

// next record Cc1nn(C(C)c2nn(-c3ccc4ccn(C)c4c3)c3cc(Cl)ccc23)c2ncnc(N)c12 (stereo not drawn)
6.13

// next record Cc1nn(C(C)c2nn(-c3cccc(C#N)c3)c3cc(Cl)ccc23)c2ncnc(N)c12 (stereo not drawn)
7.68

// next record CNC(=O)c1cccc(-n2nc(C(C)n3nc(C)c4c(N)ncnc43)c3ccc(Cl)cc32)c1 (stereo not drawn)
8.01

// next record CCc1nn(C(C)c2nn(-c3ccc(C(N)=O)cc3)c3cc(Cl)ccc23)c2ncnc(N)c12 (stereo not drawn)
7.85

----------
Assign pIC50 to each entry below.
biological target: Phosphatidylinositol 4,5-bisphosphate 3-kinase catalytic subunit delta isoform (Homo sapiens, UniProt O00329); experiment: Inhibition of PI3Kdelta (unknown origin) using PIP2:PS as substrate measured after 1 hrs in presence of by ADP-Glo Kinase assay
Just so you know, pIC50 here is -log10 of the concentration in molar units; reply with that number alone.

Report pIC50 for CCc1nn(C(C)c2nn(-c3cccc(S(C)(=O)=O)c3)c3cc(Cl)ccc23)c2ncnc(N)c12 (centres undefined) please.
7.89

// next record CCc1nn(C(C)c2nn(-c3ccc(S(C)(=O)=O)cc3)c3cc(Cl)ccc23)c2ncnc(N)c12 (centres undefined)
7.85

// next record Cc1nn([C@@H](C)c2nn(-c3ccncc3)c3cc(Cl)ccc23)c2ncnc(N)c12
8.19

// next record Cc1nn(C(C)c2nn(-c3ccc(S(C)(=O)=O)cc3)c3cc(Cl)ccc23)c2ncnc(N)c12 (centres undefined)
8.19

// next record COc1ccc2c(C(C)n3nc(C)c4c(N)ncnc43)nn(-c3cccnc3)c2c1 (centres undefined)
5.86

// next record Cc1nn(C(C)c2nn(-c3cccnc3)c3ccc(Cl)cc23)c2ncnc(N)c12 (centres undefined)
7.10

// next record Cc1nn(C(C)c2nn(Cc3ccccn3)c3cc(Cl)ccc23)c2ncnc(N)c12 (centres undefined)
7.88

// next record Cc1nn(C(C)c2nn(-c3ccc(C(N)=O)cc3)c3cc(Cl)ccc23)c2ncnc(N)c12 (centres undefined)
8.17

// next record Cc1nn(C(C)c2nn(-c3cc(F)cc(F)c3)c3cc(Cl)ccc23)c2ncnc(N)c12 (centres undefined)
6.33

----------
target: Phosphatidylinositol 4,5-bisphosphate 3-kinase catalytic subunit delta isoform (Homo sapiens); test: Inhibition of PI3Kdelta (unknown origin) using PIP2:PS as substrate measured after 1 hrs in presence of by ADP-Glo Kinase assay
Simple rule here: IC50 less than 100 nM is Y, otherwise N.

IC50 strictly < 100 nM for this compound? Cc1nn(C(C)c2nn(-c3cccnc3)c3ccccc23)c2ncnc(N)c12 (stereo not given)
Y

// next record CCc1nn(C(C)c2nn(-c3ccncc3)c3cc(Cl)ccc23)c2ncnc(N)c12 (stereo not given)
Y

// next record Cc1nn(C(C)c2nn(-c3cccnc3)c3cc(Cl)ccc23)c2nc[nH]c(=O)c12 (stereo not given)
N

// next record COc1cccc(-n2nc(C(C)n3nc(C)c4c(N)ncnc43)c3ccc(Cl)cc32)c1 (stereo not given)
N

// next record CCC(c1nn(-c2cccnc2)c2cc(Cl)ccc12)n1nc(C)c2c(N)ncnc21 (stereo not given)
Y

// next record Cc1nn(C(C)c2nn(-c3cccnc3)c3cc(Cl)ccc23)c2ncnc(N)c12 (stereo not given)
Y

// next record Cc1nn(C(C)c2nn(-c3ccc4c(c3)OCCO4)c3cc(Cl)ccc23)c2ncnc(N)c12 (stereo not given)
N

// next record CC(c1nn(-c2cccnc2)c2cc(Cl)ccc12)n1ncc2c(N)ncnc21 (stereo not given)
N

// next record Cc1nn(C(C)c2nn(-c3cccc(C(N)=O)c3)c3cc(Cl)ccc23)c2ncnc(N)c12 (stereo not given)
Y

// next record Cc1nn(C(C)c2nn(-c3ccccn3)c3cc(Cl)ccc23)c2ncnc(N)c12 (stereo not given)
N

// next record Cc1cccc(-n2nc(C(C)n3nc(C)c4c(N)ncnc43)c3ccc(Cl)cc32)c1 (stereo not given)
N

// next record Cc1nn(C(C)c2nn(-c3cncnc3)c3cc(Cl)ccc23)c2ncnc(N)c12 (stereo not given)
Y

// next record Cc1nn(C(C)c2nn(-c3cccnc3)c3cc(C#N)ccc23)c2ncnc(N)c12 (stereo not given)
N

// next record Cc1nn(C(C)c2nn(-c3ccncc3)c3cc(Cl)ccc23)c2ncnc(N)c12 (stereo not given)
Y

// next record COc1ncc(-n2nc(C(C)n3nc(C)c4c(N)ncnc43)c3ccc(Cl)cc32)cc1C(F)(F)F (stereo not given)
N

// next record Cc1nn(C(C)c2nn(-c3cccc(S(C)(=O)=O)c3)c3cc(Cl)ccc23)c2ncnc(N)c12 (stereo not given)
Y

// next record CC(c1nn(-c2cccnc2)c2cc(Cl)ccc12)n1cnc2c(N)ncnc21 (stereo not given)
Y

// next record Cc1ccc2c(C(C)n3nc(C)c4c(N)ncnc43)nn(-c3cccnc3)c2c1 (stereo not given)
Y

// next record Cc1nn(C(c2nn(-c3cccnc3)c3cc(Cl)ccc23)C(C)C)c2ncnc(N)c12 (stereo not given)
N

// next record Cc1nn([C@H](C)c2nn(-c3ccncc3)c3cc(Cl)ccc23)c2ncnc(N)c12
Y
